Quick reference: pKd of the listed items.
molecular target: T1, recombinant cynomolgus CFD, His-tagged (cynomolgus); assay: SPR MX96
T1 construct: also called rcyCFD-His; recombinant Cyno-CFD
pKd field: float, defined as -log10 of concentration (mol/L).

Recorded pKd, per entry:
KCD216 (antibody, V domains shown) VH: QVHLQQSGPELVKPGASVKISCKASGYTFIDYYINWVKQRPGQGLEWIGWIFPGSDSTYYNEKFKGKATLTVDKSSSTAYMLLSSLTSEDSAVYFCARYGYYGSSFYAMDYWGQGTSVTVSS VL: DIQMTQSPASLSVSVGETVTITCRASENIYSNLAWYQQKQGKSPQLLVYAATNLADGVPSRFSGSGSGTQYSLKINSLQSEDFGSYYCQHFWGTPPTFGGGSKLEIK
7.89
KCD224 (antibody, V domains shown, chimeric) VH: QVQLKESGPGLVAPSQSLSITCTVSGFSLTSYGVDWIRQSPGKGLEWLGVIWGVGSTNYNSALKSRLSISKDNSKSQVFLKMNSLQTDDTAMYYCARSYDGSYWYFDVWGTGTTVTVSS VL: DIQMTQTTSSLSASLGDRVTISCRASQVISNYLNWYQQKPDGTVKLLIYYTSRLHSGVPSRFSGSGSGTDYSLTISNLEPEDIATYYCQQYSKLPYTFGSGTKLEIK
7.00
KCD044 (antibody, V domains shown, chimeric) VH: EVQLQQSGAELVKPGASVRLSCTASGFNIKHTYMHWVSQRPERGLEWIGKIDPANGNTKYDPKFQGKATITADTSSNTVYLQLSSLTSEDTAVYYCLNAMEYWGQGTSVTVSS VL: QSVLTQSPAIMSASPGEKVTMTCSANSSVSDMYWYQQRPGSSPRLLIYDTSNLASGVPVRFSGSGSGTSYSLTISRMEAEDAATYYCQQWSTYPWTFGGGTKLEIK
8.22
KCD048 (antibody, V domains shown, chimeric) VH: EVQLQQSGADLVKPGASVKLSCTASGFNIKATYMHWVRQRPEKGLEWIGRIDPANGHTIYDPQFQGKATITSDTSSNTAYLQLNSLTSEDTAVYYCAEAMDYWGQGTSVTVSS VL: QIVLTQSPAIMSASPGEKVTLTCSATSSVSYMYWYQQKPGSSPRLLIYDTSNLASGVPVRFSGSGSGTSYSLTISRMEAEDDATYYCQQWSNYPFTFGGGTKLEIK
7.68
KCD124 (antibody, V domains shown, chimeric) VH: EVQLQQSGPELVKPGASVKISCKASGYTFTDHYMNWVKQSHGKSLEWIGDINPNNGGTSYNQKFKGKATLTVDKSSSTAYMELRSLTSGDSAVYYCTREGASFAFWGQGTLVTVSA VL: DVLMTQTPLSLPVSLGDQASISCRSSQSIVHSNGDTYLEWYLQKPGQSPKLLIYKVSNRFSGVPDRFSGSGSGTDFTLKISRVEAEDLGVYYCFQGSHVPLTFGAGTKLELK
8.28

Next up:
-- ask Looking for the measured pKd of KCD102 (antibody, V domains shown, chimeric) VH: QVQLQQPGAELVRPGTSVKLSCKASGYTFTSYWMHWVKQRPGQGLEWIGVIDPSDSYTNYNQKFKGKATLTVDTSSSTAYMQLSSLTSEDSAVYYCARNGYDGSMDYWGQGTSVTVSS VL: EIQMTQTTSSLSASLGDRVTISCRASQDISNYLNWYQQKPDGTVKLLIYYPSRLHSGVPSRFSGSGSGTDYSLTISNLEQEDFATYFCQQGNTLPYTFGGGTKLEIK , can you help?
-- reply 6.64
